Entries and their measured relative viability follow.
Test system: BEN
Experiment: relative viability (nuclei count vs DMSO), 5 days (fraction); higher = more cells survive
Conditions: first compound 0.08 µM
MEASURED ATTRIBUTE: relative viability

INSERT INTO assay_data (compound, experimental_value) VALUES
  ('C=C1C(=O)O[C@@H](CCCCCCCC)[C@@H]1C(=O)O [C-75] + CC(C)C[C@H](NC(=O)[C@H](Cc1ccccc1)NC(=O)c1cnccn1)B(O)O [Bortezomib] (partner 0.002 µM)', 0.847),
  ('C=C1C(=O)O[C@@H](CCCCCCCC)[C@@H]1C(=O)O [C-75] + Cc1nc(NC(=O)N2CCC[C@H]2C(N)=O)sc1-c1ccnc(C(C)(C)C(F)(F)F)c1 [Alpelisib] (partner 2 µM)', 0.983),
  ('Oc1nc(-c2ccc(C(F)(F)F)cc2)nc2c1CSCC2 [XAV939] + Cc1nc(NC(=O)N2CCC[C@H]2C(N)=O)sc1-c1ccnc(C(C)(C)C(F)(F)F)c1 [Alpelisib] (partner 2 µM)', 1.08),
  ('Oc1nc(-c2ccc(C(F)(F)F)cc2)nc2c1CSCC2 [XAV939] + O=C(c1cc(Cc2n[nH]c(=O)c3ccccc23)ccc1F)N1CCN(C(=O)C2CC2)CC1 [Olaparib] (partner 8 µM)', 1.14),
  ('C=C1C(=O)O[C@@H](CCCCCCCC)[C@@H]1C(=O)O [C-75] + Cc1nc(Nc2ncc(C(=O)Nc3c(C)cccc3Cl)s2)cc(N2CCN(CCO)CC2)n1 [Dasatinib] (partner 0.075 µM)', 0.317),
  ('C=C1C(=O)O[C@@H](CCCCCCCC)[C@@H]1C(=O)O [C-75] + CC(=O)Nc1cccc(-n2c(=O)n(C3CC3)c(=O)c3c(Nc4ccc(I)cc4F)n(C)c(=O)c(C)c32)c1 [Trametinib] (partner 0.02 µM)', 0.993),
  ('Oc1nc(-c2ccc(C(F)(F)F)cc2)nc2c1CSCC2 [XAV939] + N=C(N)NC(=N)NCCc1ccccc1 [Phenformin] (partner 250 µM)', 0.245),
  ('Oc1nc(-c2ccc(C(F)(F)F)cc2)nc2c1CSCC2 [XAV939] + CC(=O)c1c(C)c2cnc(Nc3ccc(N4CCNCC4)cn3)nc2n(C2CCCC2)c1=O [Palbociclib] (partner 0.5 µM)', 0.508),
  ('C=C1C(=O)O[C@@H](CCCCCCCC)[C@@H]1C(=O)O [C-75] + CC(=O)c1c(C)c2cnc(Nc3ccc(N4CCNCC4)cn3)nc2n(C2CCCC2)c1=O [Palbociclib] (partner 0.5 µM)', 0.509),
  ('C=C1C(=O)O[C@@H](CCCCCCCC)[C@@H]1C(=O)O [C-75] + N=C(N)NC(=N)NCCc1ccccc1 [Phenformin] (partner 250 µM)', 0.266);

* * *

Tested on: HARA
Experiment: relative viability (nuclei count vs DMSO), 5 days (fraction); higher = more cells survive
Conditions: first compound 0.08 µM
MEASURED ATTRIBUTE: relative viability

INSERT INTO assay_data (compound, experimental_value) VALUES
  ('C=C1C(=O)O[C@@H](CCCCCCCC)[C@@H]1C(=O)O [C-75] + O=C(c1cc(Cc2n[nH]c(=O)c3ccccc23)ccc1F)N1CCN(C(=O)C2CC2)CC1 [Olaparib] (partner 8 µM)', 0.76),
  ('Oc1nc(-c2ccc(C(F)(F)F)cc2)nc2c1CSCC2 [XAV939] + CC(=O)c1c(C)c2cnc(Nc3ccc(N4CCNCC4)cn3)nc2n(C2CCCC2)c1=O [Palbociclib] (partner 0.5 µM)', 0.334),
  ('Oc1nc(-c2ccc(C(F)(F)F)cc2)nc2c1CSCC2 [XAV939] + CC1(C)CCC(c2ccc(Cl)cc2)=C(CN2CCN(c3ccc(C(=O)NS(=O)(=O)c4ccc(N[C@H](CCN5CCOCC5)CSc5ccccc5)c(S(=O)(=O)C(F)(F)F)c4)cc3)CC2)C1 [Navitoclax] (partner 0.5 µM)', 1.15),
  ('C=C1C(=O)O[C@@H](CCCCCCCC)[C@@H]1C(=O)O [C-75] + COc1cc2c(Oc3ccc(NC(=O)C4(C(=O)Nc5ccc(F)cc5)CC4)cc3F)ccnc2cc1OCCCN1CCOCC1 [Foretinib] (partner 0.25 µM)', 0.822);
